# tgt: SHP2-C SH2
# assay: SH2 binding enrichment of the phosphorylated peptide, bacterial display (enrichment ratio); higher = better substrate or ligand; peptides without Tyr show the background;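 note: peptide library displayed on the E. coli surface as eCPX fusions, selected cells deep-sequenced, score is each peptide's frequency after selection divided by its frequency in the input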
property.measured: SH2 binding enrichment

What measured SH2 binding enrichment goes with IATTIYSGDKI [UGGT2_Y823_A821T] ?
0.695

Any idea what its SH2 binding enrichment is? The sequence is FVHDNYVIRRT [CPS1_Y1450]
0.517

So what does the record say about SH2 binding enrichment for NQDRTYYERVR [SPEN_Y632_S635R] ?
1.04

Bench note: what SH2 binding enrichment did CTTIHYNFMFN [TP53_Y234_C238F_YF] show?
1.08

What value of measured SH2 binding enrichment is listed for RSFPSYFTSHV [NEFL_Y442_YF] ?
1.08

I. PHQTIYSALMI [FGF23_Y70]
II. IKNSGYISQYL [EIF2AK3_Y585_R588Q]
Please state the entry with greater SH2 binding enrichment among I and II . Reply briefly: the label of your chosen item.
II

a. TLLAFYMGNFS [GLB1_Y552_P549L]
b. ETESPYQELQG [TYROBP_Y91]
c. AKLVQYYMEHH [PTPN11_Y80_E76K]
d. FMRGMYFRMKD [PLA2G6_Y541_YF]
Sort (4 sequences) by SH2 binding enrichment: min first. Provide the ranking by listing each label in its place in the requested order.
b, a, d, c
(b: 0.543, a: 0.805, d: 1.17, c: 1.75)
